- System: P. aeruginosa PAO1
- Set-up: unit not given beside the values
- condition_set: in combination with Linezolid
Positions of bridges follow the written chain, without caps; N, C: chain ends. Non-standard residues stand in square brackets, D forms with d. Residues, ends and D or L forms follow the SMILES beside them. *: point of attachment. Acetyl(1-adamantyl) = O=C(CC12CC3CC(CC(C3)C1)C2)*; Benzoyl(4-Ph) = O=C(c1ccc(-c2ccccc2)cc1)*; Lauroyl = CCCCCCCCCCCC(=O)*; Dab = NCC[C@H](N)C(=O)O
quantity_kind: MIC of adjuvant in combo

compound="CC(C)C[C@@H]1NC(=O)[C@@H](Cc2ccccc2)NC(=O)[C@H](CCN)NC(=O)[C@@H](NC(=O)[C@H](CCN)NC(=O)[C@@H](NC(=O)[C@H](CCNC(=O)c2ccc(-c3ccccc3)cc2)NC(=O)c2ccc(-c3ccccc3)cc2)[C@@H](C)O)CCNC(=O)[C@H]([C@@H](C)O)NC(=O)[C@H](CCN)NC(=O)[C@H](CCN)NC1=O [Compound 5] ({Benzoyl(4-Ph)}-[Dab](Benzoyl(4-Ph))T[Dab][Dab][Dab][dF]L[Dab][Dab]T; lactam 4-C)" quantity_kind="MIC of adjuvant in combo" measurement=(8)
compound="CC(C)C[C@@H]1NC(=O)[C@@H](Cc2ccccc2)NC(=O)[C@H](CCN)NC(=O)[C@@H](NC(=O)[C@H](CCN)NC(=O)[C@@H](NC(=O)[C@H](CCNC(=O)CC23CC4CC(CC(C4)C2)C3)NC(=O)CC23CC4CC(CC(C4)C2)C3)[C@@H](C)O)CCNC(=O)[C@H]([C@@H](C)O)NC(=O)[C@H](CCN)NC(=O)[C@H](CCN)NC1=O [Compound 4] ({Acetyl(1-adamantyl)}-[Dab](Acetyl(1-adamantyl))T[Dab][Dab][Dab][dF]L[Dab][Dab]T; lactam 4-C)" quantity_kind="MIC of adjuvant in combo" measurement=(8)
compound="CCCCCCCCCCCC(=O)NCC[C@H](NC(=O)CCCCCCCCCCC)C(=O)N[C@H](C(=O)N[C@@H](CCN)C(=O)N[C@H]1CCNC(=O)[C@H]([C@@H](C)O)NC(=O)[C@H](CCN)NC(=O)[C@H](CCN)NC(=O)[C@H](CC(C)C)NC(=O)[C@@H](Cc2ccccc2)NC(=O)[C@H](CCN)NC1=O)[C@@H](C)O [Compound 3, Didodecanoic Acid (Di-C12) Polymyxin] (Lauroyl-[Dab](Lauroyl)T[Dab][Dab][Dab][dF]L[Dab][Dab]T; lactam 4-C)" quantity_kind="MIC of adjuvant in combo" measurement=(32)

====

- System: P. aeruginosa PAO1
- Set-up: unit not given beside the values
- condition_set: antibiotic in combination with 1
quantity_kind: MICDrug in combo

compound="CCN1CCN(C(=O)N[C@@H](C(=O)N[C@@H]2C(=O)N3[C@@H]2SC(C)(C)[C@@H]3C(=O)O)c2ccccc2)C(=O)C1=O [Piperacillin, reference compound]" study_target="P. aeruginosa PAO1" measurement=(2)
compound="C[C@H]1c2cccc(O)c2C(=O)C2=C(O)[C@]3(O)C(=O)C(C(N)=O)=C(O)[C@@H](N(C)C)[C@@H]3[C@@H](O)[C@@H]21 [Doxycycline, reference compound]" study_target="P. aeruginosa PAO1" measurement=(0.5)
compound="C[C@@H]1O[C@@H]1P(=O)(O)O [Fosfomycin, reference compound]" study_target="P. aeruginosa PAO1" measurement=(2)
